# experimental-system: gp120 binding to CD4 (UniProt P01730+P04578)
# experiment-description: gp120/CD4 binding, cell-associated viral p24 antigen read-out
# stated-conditions: human, HIV-1 infected HeLa CD4 LTR β-gal cells
endpoint-name: CC50

Quick one: give measured CC50 for COc1cc(-c2ccc(/N=N/c3ccc4c(S(=O)(=O)O)cc(S(=O)(=O)O)c(N)c4c3O)c(OC)c2)ccc1/N=N/c1ccc2c(S(=O)(=O)O)cc(S(=O)(=O)O)c(N)c2c1O > 10 µg/mL

---

# System: HIV IIIB (wild type)
# experiment-description: Viral cytopathogenicity, tetrazolium-based colorimetric assay, IIIB
# Type: cell-based
# stated-conditions: virus IIIB
endpoint-name: pIC50
Would you please state pIC50, meaning minus log10 of the concentration in mol/L, as a bare number?

Quick one: give measured pIC50 for Cc1cn([C@H]2C[C@H](N=[N+]=[N-])[C@@H](CO)O2)c(=O)[nH]c1=O [AZT, zidovudine] 8.49

# credit: patent US20030216334A1
